Settings: in n-butanol, 278.15 K
Measured attribute: solubility (mole fraction)
Please reply with the number alone, leaving off any unit.

So, `CCS(=O)(=O)O.COC(=O)c1ccc2c(C(=Nc3ccc(N(C)C(=O)CN4CCN(C)CC4)cc3)c3ccccc3)c(O)[nH]c2c1` ? Its solubility (mole fraction) was 1.21e-05

* * *

Details: in ethanol, 313.15 K
Measured attribute: solubility (mole fraction)
Please reply with the number alone, leaving off any unit.

So, `CCS(=O)(=O)O.COC(=O)c1ccc2c(C(=Nc3ccc(N(C)C(=O)CN4CCN(C)CC4)cc3)c3ccccc3)c(O)[nH]c2c1` ? Its solubility (mole fraction) was 0.000473
